Quick reference for MIC Range among some compounds
test system: Superantigen positive S. aureus (14); settings: superantigen positive clinical isolates (14); microbroth dilution, MHB II, 5 × 10^5 CFU/mL, 18 h at 37°C, triplicate

compound: CCCCCCCCCC(=O)N[C@@H](Cc1c[nH]c2ccccc12)C(=O)N[C@H](CC(N)=O)C(=O)N[C@@H](CC(=O)O)C(=O)N[C@@H]1C(=O)NCC(=O)N[C@@H](CCCN)C(=O)N[C@@H](CC(=O)O)C(=O)N[C@H](C)C(=O)N[C@@H](CC(=O)O)C(=O)NCC(=O)N[C@H](CO)C(=O)N[C@@H]([C@H](C)CC(=O)O)C(=O)N[C@@H](CC(=O)c2ccccc2N)C(=O)O[C@@H]1C
MIC Range: 1 to 4 µg/mL

compound: CCCCCCCCCCCCCCCC(=O)N[C@@H](CCCCN)C(=O)N[C@@H](CCCCN)C(N)=O [Lipopeptide, Pal-KK-NH2]
MIC Range: 1 to 8 µg/mL

compound: CC(C)C[C@H](NC(=O)[C@H](CCCNC(=N)N)NC(=O)CNC(=O)CNC(=O)[C@@H](N)CCCNC(=N)N)C(=O)N[C@H]1CSSC[C@@H](C(=O)N[C@H](C(=O)NCC(=O)N[C@@H](CCCNC(=N)N)C(N)=O)C(C)C)NC(=O)[C@H](C(C)C)NC(=O)[C@@H]2CSSC[C@H](NC(=O)[C@H](Cc3ccc(O)cc3)NC1=O)C(=O)N[C@@H](CCCNC(=N)N)C(=O)N[C@@H](CCCNC(=N)N)C(=O)N[C@@H](CCCNC(=N)N)C(=O)N[C@@H](Cc1ccccc1)C(=O)N2
MIC Range: 1 to 4 µg/mL

compound: CC[C@H]1OC(=O)[C@H](C)[C@@H](O[C@H]2C[C@@](C)(OC)[C@@H](O)[C@H](C)O2)[C@H](C)[C@@H](O[C@@H]2O[C@H](C)C[C@H](N(C)C)[C@H]2O)[C@](C)(O)C[C@@H](C)C(=O)[C@H](C)[C@@H](O)[C@]1(C)O
MIC Range: 0.25 to 512 µg/mL

###

tested on: Superantigen positive S. aureus (14); experiment: microbe, parasite or virus in culture; details: Staphylococcus aureus, 18 h
Quick reference for MIC50 among some molecules
observed.property: MIC50 (µg/mL)

molecule: CO[C@H]1/C=C/O[C@@]2(C)Oc3c(C)c(O)c4c(O)c(c(/C=N/N5CCN(C)CC5)c(O)c4c3C2=O)NC(=O)/C(C)=C\C=C\[C@H](C)[C@H](O)[C@@H](C)[C@@H](O)[C@@H](C)[C@H](OC(C)=O)[C@@H]1C [Rifampicin, rifampicin]
unit.name: µg/mL
number: 0.25
//
molecule: CN[C@H](CC(C)C)C(=O)N[C@H]1C(=O)N[C@@H](CC(N)=O)C(=O)N[C@H]2C(=O)N[C@H]3C(=O)N[C@H](C(=O)N[C@H](C(=O)O)c4cc(O)cc(O)c4-c4cc3ccc4O)[C@H](O)c3ccc(c(Cl)c3)Oc3cc2cc(c3O[C@@H]2O[C@H](CO)[C@@H](O)[C@H](O)[C@H]2O[C@H]2C[C@](C)(N)[C@H](O)[C@H](C)O2)Oc2ccc(cc2Cl)[C@H]1O [Vancomycin, vancomycin]
unit.name: µg/mL
number: 1
//
molecule: CCC[C@@H]1C[C@@H](C(=O)N[C@@H]([C@H]2O[C@H](SC)[C@H](O)[C@@H](O)[C@H]2O)[C@H](C)Cl)N(C)C1 [Clindamycin, clindamycin]
unit.name: µg/mL
number: 64
//
molecule: CC[C@H]1OC(=O)[C@H](C)[C@@H](O[C@H]2C[C@@](C)(OC)[C@@H](O)[C@H](C)O2)[C@H](C)[C@@H](O[C@@H]2O[C@H](C)C[C@H](N(C)C)[C@H]2O)[C@](C)(O)C[C@@H](C)C(=O)[C@H](C)[C@@H](O)[C@]1(C)O [Erythromycin, erythromycin]
unit.name: µg/mL
number: 1

###

tested on: Superantigen negative S. aureus (10); experiment: microbe, parasite or virus in culture; details: Staphylococcus aureus, 18 h
Quick reference for MIC90 among some molecules

input.smiles: CCC[C@@H]1C[C@@H](C(=O)N[C@@H]([C@H]2O[C@H](SC)[C@H](O)[C@@H](O)[C@H]2O)[C@H](C)Cl)N(C)C1
unit.name: µg/mL
MIC90: 32
--
input.smiles: CN[C@H](CC(C)C)C(=O)N[C@H]1C(=O)N[C@@H](CC(N)=O)C(=O)N[C@H]2C(=O)N[C@H]3C(=O)N[C@H](C(=O)N[C@H](C(=O)O)c4cc(O)cc(O)c4-c4cc3ccc4O)[C@H](O)c3ccc(c(Cl)c3)Oc3cc2cc(c3O[C@@H]2O[C@H](CO)[C@@H](O)[C@H](O)[C@H]2O[C@H]2C[C@](C)(N)[C@H](O)[C@H](C)O2)Oc2ccc(cc2Cl)[C@H]1O
unit.name: µg/mL
MIC90: 1
--
input.smiles: CC(=O)NC[C@H]1CN(c2ccc(N3CCOCC3)c(F)c2)C(=O)O1
unit.name: µg/mL
MIC90: 1
--
input.smiles: CN(C)c1cc(NC(=O)CNC(C)(C)C)c(O)c2c1C[C@H]1C[C@H]3[C@H](N(C)C)C(O)=C(C(N)=O)C(=O)[C@@]3(O)C(O)=C1C2=O
unit.name: µg/mL
MIC90: 0.5
--
input.smiles: CC[C@H]1OC(=O)[C@H](C)[C@@H](O[C@H]2C[C@@](C)(OC)[C@@H](O)[C@H](C)O2)[C@H](C)[C@@H](O[C@@H]2O[C@H](C)C[C@H](N(C)C)[C@H]2O)[C@](C)(O)C[C@@H](C)C(=O)[C@H](C)[C@@H](O)[C@]1(C)O
unit.name: µg/mL
MIC90: 0.5
--
input.smiles: CO[C@H]1/C=C/O[C@@]2(C)Oc3c(C)c(O)c4c(O)c(c(/C=N/N5CCN(C)CC5)c(O)c4c3C2=O)NC(=O)/C(C)=C\C=C\[C@H](C)[C@H](O)[C@@H](C)[C@@H](O)[C@@H](C)[C@H](OC(C)=O)[C@@H]1C
unit.name: µg/mL
MIC90: 1
--
input.smiles: O=C(N[C@H](CO)[C@H](O)c1ccc([N+](=O)[O-])cc1)C(Cl)Cl
unit.name: µg/mL
MIC90: 32

###

tested on: Superantigen negative S. aureus (10); test: microbe, parasite or virus in culture; settings: Staphylococcus aureus, read-out: MBC 90%
Quick reference for MBC among some compounds

input.smiles: O=C(N[C@H](CO)[C@H](O)c1ccc([N+](=O)[O-])cc1)C(Cl)Cl
MBC, µg/mL: 32

input.smiles: CN(C)c1cc(NC(=O)CNC(C)(C)C)c(O)c2c1C[C@H]1C[C@H]3[C@H](N(C)C)C(O)=C(C(N)=O)C(=O)[C@@]3(O)C(O)=C1C2=O
MBC, µg/mL: 1

input.smiles: CO[C@H]1/C=C/O[C@@]2(C)Oc3c(C)c(O)c4c(O)c(c(/C=N/N5CCN(C)CC5)c(O)c4c3C2=O)NC(=O)/C(C)=C\C=C\[C@H](C)[C@H](O)[C@@H](C)[C@@H](O)[C@@H](C)[C@H](OC(C)=O)[C@@H]1C
MBC, µg/mL: 1

input.smiles: CN[C@H](CC(C)C)C(=O)N[C@H]1C(=O)N[C@@H](CC(N)=O)C(=O)N[C@H]2C(=O)N[C@H]3C(=O)N[C@H](C(=O)N[C@H](C(=O)O)c4cc(O)cc(O)c4-c4cc3ccc4O)[C@H](O)c3ccc(c(Cl)c3)Oc3cc2cc(c3O[C@@H]2O[C@H](CO)[C@@H](O)[C@H](O)[C@H]2O[C@H]2C[C@](C)(N)[C@H](O)[C@H](C)O2)Oc2ccc(cc2Cl)[C@H]1O
MBC, µg/mL: 2

input.smiles: CCC[C@@H]1C[C@@H](C(=O)N[C@@H]([C@H]2O[C@H](SC)[C@H](O)[C@@H](O)[C@H]2O)[C@H](C)Cl)N(C)C1
MBC, µg/mL: 64

input.smiles: CC[C@H]1OC(=O)[C@H](C)[C@@H](O[C@H]2C[C@@](C)(OC)[C@@H](O)[C@H](C)O2)[C@H](C)[C@@H](O[C@@H]2O[C@H](C)C[C@H](N(C)C)[C@H]2O)[C@](C)(O)C[C@@H](C)C(=O)[C@H](C)[C@@H](O)[C@]1(C)O
MBC, µg/mL: 2

###

test system: Superantigen positive S. aureus (14); experiment: microbe, parasite or virus in culture; details: Staphylococcus aureus, read-out: MBC 90%
observed.property: MBC (µg/mL)

compound: O=C(N[C@H](CO)[C@H](O)c1ccc([N+](=O)[O-])cc1)C(Cl)Cl [Chloramphenicol, chloramphenicol]
measured.target: Superantigen positive S. aureus (14)
number: 128
//
compound: CN[C@H](CC(C)C)C(=O)N[C@H]1C(=O)N[C@@H](CC(N)=O)C(=O)N[C@H]2C(=O)N[C@H]3C(=O)N[C@H](C(=O)N[C@H](C(=O)O)c4cc(O)cc(O)c4-c4cc3ccc4O)[C@H](O)c3ccc(c(Cl)c3)Oc3cc2cc(c3O[C@@H]2O[C@H](CO)[C@@H](O)[C@H](O)[C@H]2O[C@H]2C[C@](C)(N)[C@H](O)[C@H](C)O2)Oc2ccc(cc2Cl)[C@H]1O [Vancomycin, vancomycin]
measured.target: Superantigen positive S. aureus (14)
number: 4
//
compound: CC[C@H]1OC(=O)[C@H](C)[C@@H](O[C@H]2C[C@@](C)(OC)[C@@H](O)[C@H](C)O2)[C@H](C)[C@@H](O[C@@H]2O[C@H](C)C[C@H](N(C)C)[C@H]2O)[C@](C)(O)C[C@@H](C)C(=O)[C@H](C)[C@@H](O)[C@]1(C)O [Erythromycin, erythromycin]
measured.target: Superantigen positive S. aureus (14)
number: 128
//
compound: CN(C)c1cc(NC(=O)CNC(C)(C)C)c(O)c2c1C[C@H]1C[C@H]3[C@H](N(C)C)C(O)=C(C(N)=O)C(=O)[C@@]3(O)C(O)=C1C2=O [Tigecycline, tigecycline]
measured.target: Superantigen positive S. aureus (14)
number: 1
//
compound: CO[C@H]1/C=C/O[C@@]2(C)Oc3c(C)c(O)c4c(O)c(c(/C=N/N5CCN(C)CC5)c(O)c4c3C2=O)NC(=O)/C(C)=C\C=C\[C@H](C)[C@H](O)[C@@H](C)[C@@H](O)[C@@H](C)[C@H](OC(C)=O)[C@@H]1C [Rifampicin, rifampicin]
measured.target: Superantigen positive S. aureus (14)
number: 2
//
compound: CCC[C@@H]1C[C@@H](C(=O)N[C@@H]([C@H]2O[C@H](SC)[C@H](O)[C@@H](O)[C@H]2O)[C@H](C)Cl)N(C)C1 [Clindamycin, clindamycin]
measured.target: Superantigen positive S. aureus (14)
number: 128
